Cited source: DBAASP

test system: Escherichia coli UB1005
ENDPOINT: MIC (µM)

[[record]]
smiles_string = "CC[C@H](C)[C@H](NC(=O)[C@H](CCCN=C(N)N)NC(=O)[C@H](CO)NC(=O)[C@H](CC(C)C)NC(=O)[C@@H](N)CCCN=C(N)N)C(=O)N[C@H](C(=O)N[C@H](C(=O)N[C@H](C(=O)N[C@@H](CCCN=C(N)N)C(=O)N[C@H](C(=O)N[C@@H](CS)C(=O)N[C@@H](CCCN=C(N)N)C(N)=O)C(C)C)[C@@H](C)CC)C(C)C)C(C)C"
numeric_result = 2.72

[[record]]
smiles_string = "C[C@H](NC(=O)[C@H](C)NC(=O)[C@H](C)NC(=O)[C@H](Cc1c[nH]c2ccccc12)NC(=O)[C@H](Cc1ccccc1)NC(=O)[C@H](C)NC(=O)[C@H](C)NC(=O)[C@H](C)NC(=O)[C@H](C)NC(=O)[C@H](CCCCN)NC(=O)[C@H](CCCCN)NC(=O)[C@H](CCCCN)NC(=O)[C@H](CCCCN)NC(=O)[C@H](CCCCN)NC(=O)[C@@H](N)CCCCN)C(=O)N[C@@H](C)C(=O)N[C@@H](Cc1ccccc1)C(N)=O"
numeric_result = 2

[[record]]
smiles_string = "C[C@H](NC(=O)[C@H](C)NC(=O)[C@H](CCCCN)NC(=O)[C@H](C)NC(=O)[C@H](C)NC(=O)[C@H](C)NC(=O)[C@H](CCCCN)NC(=O)[C@H](Cc1ccccc1)NC(=O)[C@@H](N)Cc1c[nH]c2ccccc12)C(=O)N[C@@H](C)C(=O)N[C@@H](CCCCN)C(=O)N[C@@H](Cc1ccccc1)C(=O)N[C@@H](Cc1c[nH]c2ccccc12)C(N)=O"
numeric_result = 4

